- Test system: S. aureus 25923
- Type: cell-based, Staphylococcus aureus
Non-standard residues stand in square brackets, D forms with d. Residues, ends and D or L forms follow the SMILES beside them. ξ: configuration not given here. *: point of attachment. Ahp(2) = CCCCC[C@H](N)C(=O)O; Decanoyl = CCCCCCCCCC(=O)*; ξAhp(2) = CCCCCC(N)C(=O)O
assay-metric: MIC, S. aureus 25923 (µM)
Record the value in µM, omitting the unit from your answer.

Example entries begin here.
- CCCCC[C@H](NC(=O)[C@H](CCCCC)NC(=O)[C@H](CCCCC)NC(=O)[C@@H](N)CCCCC)C(=O)N[C@@H](CCCCC)C(=O)N[C@@H](CCCCC)C(=O)N[C@H](CCCNC(=N)N)C(=O)N[C@@H](CCCNC(=N)N)C(=O)N[C@@H](CCCNC(=N)N)C(=O)N1CCC[C@H]1C(=O)O [Peptide B6] (H-[Ahp(2)][Ahp(2)][Ahp(2)][Ahp(2)][Ahp(2)][Ahp(2)][dR]RRP-OH; N-terminus and C-terminus assumed): 256
- CCCCCCCCCC(=O)N[C@H](CCCNC(=N)N)C(=O)N[C@@H](CCCNC(=N)N)C(=O)N[C@@H](CCCNC(=N)N)C(=O)N1CCC[C@H]1C(=O)O [Peptide C10] (Decanoyl-[dR]RRP-OH): 256
- CCCCCC(N)C(=O)NC(CCCCC)C(=O)NC(CCCCC)C(=O)NC(CCCCC)C(=O)N[C@H](CCCNC(=N)N)C(=O)N[C@@H](CCCNC(=N)N)C(=O)N[C@@H](CCCNC(=N)N)C(=O)N1CCC[C@H]1C(=O)O (stereo partly shown) [Peptide B4] (H-[ξAhp(2)][ξAhp(2)][ξAhp(2)][ξAhp(2)][dR]RRP-OH; N-terminus assumed): 32

Proceed to the following item.
// query Can you share its MIC, S. aureus 25923? I mean this compound: CCCCCC(N)C(=O)NC(CCCCC)C(=O)NC(CCCCC)C(=O)NC(CCCCC)C(=O)NC(CCCCC)C(=O)N[C@H](CCCNC(=N)N)C(=O)N[C@@H](CCCNC(=N)N)C(=O)N[C@@H](CCCNC(=N)N)C(=O)N1CCC[C@H]1C(=O)O (stereo partly shown) [Peptide B5] (H-[ξAhp(2)][ξAhp(2)][ξAhp(2)][ξAhp(2)][ξAhp(2)][dR]RRP-OH; N-terminus assumed)
// result 256
